From: ChEMBL document CHEMBL1201862

system: SNB-19; test: NCI tumour cell line growth inhibition, 48 h
Activity calls are given as the source filed them. Cut-off read from the data, not from the text of the source: active = GI50 up to about 1.1 µM and inactive = higher.
In this section, each of the compounds is paired with its reported GI50.

Prompt: Enter reported GI50 observed with SNB-19 for Cc1cn(CCCCOC(=O)NC(CCCNC(N)=O)C(=O)O)c(=O)[nH]c1=O (stereo not given)
Response: > 100 µM (inactive)

Prompt: Enter reported GI50 observed with SNB-19 for COC(=O)/C(C#N)=C(\N)C(Cl)(Cl)Cl
Response: 40.8 µM (inactive)

====

tested on: ACHN; test: NCI tumour cell line growth inhibition, 48 h
The source made the active and inactive calls. Rule as the data show it: active = GI50 up to about 1.1 µM and inactive = higher.
Endpoint Label: GI50

Past entries and their recorded results:
{"Molecule": "O=C(CCCN1CCC(Nc2ccccc2)(c2nnnn2C2CCCCC2)CC1)c1ccc(F)cc1", "Endpoint Label": "GI50", "Observed Value": "4.58 µM (inactive)"}
{"Molecule": "COC(=O)CCc1ccc2c(c1)CCC2", "Endpoint Label": "GI50", "Observed Value": "> 100 µM (inactive)"}
{"Molecule": "Cc1c(C(=O)CSc2nc3cc([N+](=O)[O-])ccc3[nH]2)c(=O)n(-c2ccccc2)n1C", "Endpoint Label": "GI50", "Observed Value": "> 100 µM (inactive)"}
{"Molecule": "CC(=O)c1ccc2c(c1)N(CCCN1CCN(CCO)CC1)c1ccccc1C2", "Endpoint Label": "GI50", "Observed Value": "20.3 µM (inactive)"}
{"Molecule": "COC(=O)c1ccc(/C=N/c2ccc(S(N)(=O)=O)cc2)cc1", "Endpoint Label": "GI50", "Observed Value": "84.3 µM (inactive)"}

Prompt: Requested read-out: GI50. Entry: CSc1ncnc2c1ncn2C1OC(CO)C(O)OC1O (stereo unspecified)
Response: 0.643 µM (active)
